molecular target: human complement component C3 (human, UniProt P01024 23-667; P01024 672-1663); test: cell-based or functional assay
Sequence (P01024 23-667, chain 1 of 2): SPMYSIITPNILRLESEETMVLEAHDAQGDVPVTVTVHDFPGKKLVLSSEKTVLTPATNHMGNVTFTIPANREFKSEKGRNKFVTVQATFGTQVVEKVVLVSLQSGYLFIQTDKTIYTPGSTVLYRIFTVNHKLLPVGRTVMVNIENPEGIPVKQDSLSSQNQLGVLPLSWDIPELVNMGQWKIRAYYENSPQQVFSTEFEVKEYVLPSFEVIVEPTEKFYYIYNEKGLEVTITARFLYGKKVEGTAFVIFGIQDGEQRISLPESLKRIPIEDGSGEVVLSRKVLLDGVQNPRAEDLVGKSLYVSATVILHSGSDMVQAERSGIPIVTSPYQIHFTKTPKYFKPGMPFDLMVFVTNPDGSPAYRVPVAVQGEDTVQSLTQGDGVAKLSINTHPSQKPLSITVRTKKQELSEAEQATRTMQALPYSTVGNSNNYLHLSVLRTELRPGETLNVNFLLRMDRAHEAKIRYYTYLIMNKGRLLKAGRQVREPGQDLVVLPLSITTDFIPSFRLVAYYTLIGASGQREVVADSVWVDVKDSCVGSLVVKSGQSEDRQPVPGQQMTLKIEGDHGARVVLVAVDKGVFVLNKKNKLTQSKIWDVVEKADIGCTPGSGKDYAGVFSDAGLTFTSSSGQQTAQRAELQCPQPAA
Sequence (P01024 672-1663, chain 2 of 2): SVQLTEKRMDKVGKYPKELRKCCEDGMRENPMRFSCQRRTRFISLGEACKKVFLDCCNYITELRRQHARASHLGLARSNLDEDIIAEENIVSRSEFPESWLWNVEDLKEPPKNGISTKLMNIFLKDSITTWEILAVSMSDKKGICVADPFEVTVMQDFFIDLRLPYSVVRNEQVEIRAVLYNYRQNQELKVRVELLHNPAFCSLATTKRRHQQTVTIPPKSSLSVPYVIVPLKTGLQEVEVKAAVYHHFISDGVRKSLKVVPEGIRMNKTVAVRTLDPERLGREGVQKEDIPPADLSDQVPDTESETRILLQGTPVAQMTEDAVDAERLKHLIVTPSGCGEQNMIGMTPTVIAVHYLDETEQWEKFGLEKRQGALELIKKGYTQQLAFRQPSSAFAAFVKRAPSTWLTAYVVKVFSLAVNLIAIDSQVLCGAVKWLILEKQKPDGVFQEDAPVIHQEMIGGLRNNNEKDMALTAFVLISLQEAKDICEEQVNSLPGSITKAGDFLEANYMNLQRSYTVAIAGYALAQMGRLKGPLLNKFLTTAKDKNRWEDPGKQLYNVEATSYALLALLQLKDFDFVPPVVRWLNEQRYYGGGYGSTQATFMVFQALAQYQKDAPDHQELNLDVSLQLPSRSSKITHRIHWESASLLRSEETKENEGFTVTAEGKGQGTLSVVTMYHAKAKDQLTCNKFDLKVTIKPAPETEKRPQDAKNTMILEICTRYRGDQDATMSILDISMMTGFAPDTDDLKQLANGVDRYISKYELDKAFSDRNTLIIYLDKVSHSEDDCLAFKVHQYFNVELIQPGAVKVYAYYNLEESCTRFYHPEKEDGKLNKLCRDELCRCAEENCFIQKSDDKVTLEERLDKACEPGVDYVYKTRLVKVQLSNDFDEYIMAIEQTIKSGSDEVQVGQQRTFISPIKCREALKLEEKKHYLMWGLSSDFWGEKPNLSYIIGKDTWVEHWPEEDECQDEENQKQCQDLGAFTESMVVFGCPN
MEASUREMENT KIND: Hemolytic Assay IC50, Human CP (nM)
Please state the figure in nM; there is no need to write the unit.

Examples from the recorded data:
# BINDER, UNITS OF MEASURE, Hemolytic Assay IC50, Human CP
rows = [
    ("antibody 38F5 (antibody, V domains shown, Mouse hybridoma antibody) VH: EVMLVESGGALVKPGGSLKLSCTASGFTFSNYAMSWVRQTPEKRLEWVAQTISSGGRYTYYPDSVKGRFTISRDNARNTLYLQMSSLRSEDTAMYYCVRRYYGNSYWYFDVWGAGTTVTVSS VL: DIVMTQSPSSLSVSAGEKVTMNCKSSQSLLNSGNQKHYLTWYQQKPGQPPKLLIYGASTRGSGVPDRFTGSGSGTDFTLTISSVQAEDLAVYYCQNDHSYPYTFGGGTKLEIK", "nM", 6.7),
    ("antibody 28C3 (antibody, V domains shown, Mouse hybridoma antibody) VH: QVQLQQSGPELVKPGASVKISCKASGYAFNSCWMNWVKQRPGKGLEWIGRIYPGDGDTNYNGKFKGKATLTADKSSTTAYMQLSSLTSEDSAVYFCAREGRNYGYEDYWGQGTTLTVSS VL: DIVLTQSPASLAVSLGQRATISCKASQSVDYDGDSYMNWYQQKPGQPPKLLIYAASDLESGIPARFSGSGSGTDFTLNIHPVEEEDAATYYCQQANEDPRTFGGGTKLEIK", "nM", 6.5),
]

// lookup Hemolytic Assay IC50, Human CP for antibody 3G8 (antibody, V domains shown, Mouse hybridoma antibody) VH: EIQLQQSGAELVKPGASVKISCMASGYSFTGYNMNWVKQSHGKGLEWIGNINPYYDSTSYNQKFKGKATLTVDKSSSTAYMQLNSLTSEDSAVYYCARENYDFVGFAYWGQGTLVTVSA VL: QIVLSQSPAILSASPGEKVTMTCRASSSVSYMHWFQQKPGSSPKPWIYVTSNLASGVPPRFSGSGSGTSYSLTISRVEAEDAATYYCQQWSTNPLTFGAGTKLELK
10.4

Next binder up: antibody 27A8 (antibody, V domains shown) VH: QVQLLQPGAEFVKPGASVKLSCKASGYTFTDYWINWVKQRPGQGLEWIGNIYPGSTSANYNEKFKSKATLTIDTSSITAYMQLSSLTSDDSAVYYCARYGYDSWFAYWGQGTLVTVSA VL: DVVLTQTPLSLPVNIGDQASISCKSTKSLLNSDGFTYLDWFLQKPGQSPHLLIYLVSNRFSGIPDRFSGSGSETDFTLKISRVEAEDLGVYYCFQSNYLPLTFGSGTKLEIK
7.6

Similarly, antibody 63A3 (antibody, V domains shown, Mouse hybridoma antibody) VH: DVQLQESGPGLVKPSQSLSLTCSVTGYSITSGYYWNWIRQFPGNKLEWMGYIRYDGSNNYNPSLKNRISITRDTSKNQVFLKLNSVTPEDTATYYCARHYGYDGGAFDFWGQGTTLTVSS VL: DIQMTQSPASLSASVGETVTITCRTSENIYNYLVWYQQKQGKSPQLLVYNAKTLEEGVPSRFSGSGSGTQFSLKVNSLQPEDFGSYYCQHHYGTPFTFGSGTKLEIK ?
4.1

Can you check antibody 38G10 (antibody, V domains shown, Mouse hybridoma antibody; Parent of Hz38G10; also called parental 38G10 antibody) VH: EVQLQQSGPELVKPGDSVKMSCKASGYTFTDFYMDWVKQSHGKSLEWIGYIYPHNGGTTYNQNFTGKATLTVDKSSNTAYMELHSLTSEDSAVYYCARRGGFDFDYWGQGTTLTVSS VL: NIVMTQSPKSMSLSVGERVTLRCKASENVDTYVSWYQQKPEQSPKLLIYGASNRYTGVPDRFTGSGSATEFTLTISSVQAEDLVGYHCGQSHSYPLTFGAGTKLELK next?
1.7

Now consider antibody 3D8 (antibody, V domains shown, Mouse hybridoma antibody raised against human C3) VH: EIQLQQSGAELVKPGASVKISCKASGYSFTGYNMNWVKQSHGKSLEWIGNINPYYGSTNYNQKFKGKATLTVDKSSTTAYMQLDSLTSEDSAVYYCARGYYGGNYPFAYWGQGTLVTVSA VL: DIQMTQSPASLSASVGETVTITCRASENIYSYLAWYQQKQGKSPQLLVYNAKTLAEGVPSRFSGSGSGTQFSLKINSLQPEDFGSYYCQHYYGTPYTFGGGSKVEIK and answer again.
3.6

Every entry's value here was drawn from patent US20190322730A1.
